assay: Quantitative High-Throughput drug screen in 47 multiple myeloma cell lines against the NCATS MIPE library collection: JJN3_DSMZ cell viability assay (AID 1918966; also: nearly all actives have a fitted effect of over 50% in size); conditions: JJN3 myeloma cells viability, CellTiter-Glo ATP, 48 h; series mostly up to 45.8 µM
Results filed as inconclusive are left out. Active and inactive are the calls of the source. Calls follow the shape of the dose curve; as a rule, active = well fitted cell-killing curve with a large enough effect; inconclusive = small, poorly fitted or top-dose-only effect, or effect the other way; inactive = no such curve, though single readings can be large or run the other way.
# output must be one of true = active, false = inactive

For orientation, consider the following solved cases.
Query Smiles	Category Label
NC(=NCCCCCCN=C(N)N=C(N)Nc1ccc(Cl)cc1)N=C(N)Nc1ccc(Cl)cc1	true
C[C@@H](Cc1cc2c(c(C(N)=O)c1)N(CCCO)CC2)NCCOc1ccccc1OCC(F)(F)F	false
COc1cccc2c1C(=O)c1c(O)c3c(c(O)c1C2=O)C[C@@](O)(C(C)=O)C[C@H]3O[C@H]1C[C@H](N)[C@H](O)[C@H](C)O1	true

// return assay outcome for O=c1c(O)c(-c2ccc(O)c(O)c2)oc2cc(O)ccc12
true

meta.source: PubChem BioAssay (NCATS)
